System: 422866-222-R5-J1-PDC complex spheroids viability
Test: Anticancer human tumor 422866-222-R5-J1-PDC patient-derived pancreatic adenocarcinoma cell line growth inhibition [RAS]
Details: second compound 0.0949 µM; first compound 1 µM; hits give low values
Text: RAS pathway inhibitors in Combinations in Complex Spheroids A high-throughput screen of multi-cell type tumor spheroids was designed to identify active combinations of RAS pathway inhibitors and targeted small molecules. Complex spheroids include a stromal component modeled by human endothelial cells (HUVEC) and fibroblasts modeled by human mesenchymal stem cells (MSCs). […] Compounds. […] If the clinical Cmax for an agent had not been determined, the highest concentration tested was 10 microM. […]
metricName: viability, T/C (%)
The response must be a number in % with no trailing unit.

In one line, give reported viability, T/C of the entry Cc1nc(N2CCC3(CC2)COC(C)C3N)c(CO)nc1Sc1ccnc(N)c1Cl (centres undefined) + CCn1c(-c2cccnc2C(C)OC)c2c3cc(ccc31)N1CCOC(CC(NC(=O)C(C(C)C)N(C)C(=O)C3(F)CCN(C(=O)C#CC(C)(C)N(C)C)CC3)C(=O)N3CCCC(N3)C(=O)OCC(C)(C)C2)C1 . 11.9

In one line, give reported viability, T/C of the entry O=C(c1ccc(F)c(F)c1Nc1ccc(I)cc1F)N1CC(O)([C@@H]2CCCCN2)C1 + CCn1c(-c2cc(N3CCN(C)CC3)cnc2C(C)OC)c2c3cc(ccc31)-c1csc(n1)CC(NC(=O)C1CC1C)C(=O)N1CCCC(N1)C(=O)OCC(C)(C)C2 . 15.3

In one line, give reported viability, T/C of the entry Nc1ccn(C2OC(CO)C(O)C2(F)F)c(=O)n1 (centres undefined) + CCn1c(-c2cccnc2C(C)OC)c2c3cc(ccc31)N1CCOC(CC(NC(=O)C(C(C)C)N(C)C(=O)C3(F)CCN(C(=O)C#CC(C)(C)N(C)C)CC3)C(=O)N3CCCC(N3)C(=O)OCC(C)(C)C2)C1 . 12.9

In one line, give reported viability, T/C of the entry CCC(CC)c1cc(NC2CCC(N)C2)n2nccc2n1 (centres undefined) + CCn1c(-c2cccnc2C(C)OC)c2c3cc(ccc31)N1CCOC(CC(NC(=O)C(C(C)C)N(C)C(=O)C3(F)CCN(C(=O)C#CC(C)(C)N(C)C)CC3)C(=O)N3CCCC(N3)C(=O)OCC(C)(C)C2)C1 . 24.5

###

System: 422866-222-R5-J1-PDC complex spheroids viability
Assay: Anticancer human tumor 422866-222-R5-J1-PDC cell line growth inhibition [RAS];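 note: spheroids exposed to compounds for 7 days; 100% = DMSO vehicle control viability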
Conditions: second compound 10 µM; first compound 0.00316 µM; hits give low values
metricName: viability, T/C (%)
The response must be a number in % with no trailing unit.

In one line, give reported viability, T/C of the entry O=C(c1ccc(F)c(F)c1Nc1ccc(I)cc1F)N1CC(O)([C@@H]2CCCCN2)C1 + C#Cc1c(F)ccc2cc(O)cc(-c3ncc4c(N5CC6CCC(C5)N6)nc(OCC56CCCN5CC(F)C6)nc4c3F)c12 . 19.8

In one line, give reported viability, T/C of the entry C=CC(=O)Nc1cc(Nc2nccc(-c3cn(C)c4ccccc34)n2)c(OC)cc1N(C)CCN(C)C + C#Cc1c(F)ccc2cc(O)cc(-c3ncc4c(N5CC6CCC(C5)N6)nc(OCC56CCCN5CC(F)C6)nc4c3F)c12 . 23.2

In one line, give reported viability, T/C of the entry Nc1ccn(C2OC(CO)C(O)C2(F)F)c(=O)n1 (stereo not drawn) + C#Cc1c(F)ccc2cc(O)cc(-c3ncc4c(N5CC6CCC(C5)N6)nc(OCC56CCCN5CC(F)C6)nc4c3F)c12 . 24.8

###

Test system: 422866-222-R5-J1-PDC complex spheroids viability
Experiment: Anticancer human tumor 422866-222-R5-J1-PDC cell line growth inhibition [RAS]; active means viability on the fitted dose curve at most 10% of control; inactive means the rest;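 note: spheroids exposed to compounds for 7 days; 100% = DMSO vehicle control viability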
Conditions: second compound 0.0949 µM; first compound 3.16 µM
Text: RAS pathway inhibitors in Combinations in Complex Spheroids A high-throughput screen of multi-cell type tumor spheroids was designed to identify active combinations of RAS pathway inhibitors and targeted small molecules. Complex spheroids include a stromal component modeled by human endothelial cells (HUVEC) and fibroblasts modeled by human mesenchymal stem cells (MSCs). […] Compounds. […] If the clinical Cmax for an agent had not been determined, the highest concentration tested was 10 microM. […]
Could you please pick one outcome from this set? Yes (active), No (inactive)

// outcome(item) with item = CC1(O)CCCC1n1c(=O)c(C(F)F)cc2cnc(NC3CCN(S(C)(=O)=O)CC3)nc21 (stereo unspecified) + CCn1c(-c2cc(N3CCN(C)CC3)cnc2C(C)OC)c2c3cc(ccc31)-c1csc(n1)CC(NC(=O)C1CC1C)C(=O)N1CCCC(N1)C(=O)OCC(C)(C)C2 No

// outcome(item) with item = CC(=O)OC12COC1CC(O)C1(C)C(=O)C(O)C3=C(C)C(OC(=O)C(O)C(NC(=O)OC(C)(C)C)c4ccccc4)CC(O)(C(OC(=O)c4ccccc4)C21)C3(C)C (stereo unspecified) + CCn1c(-c2cccnc2C(C)OC)c2c3cc(ccc31)N1CCOC(CC(NC(=O)C(C(C)C)N(C)C(=O)C3(F)CCN(C(=O)C#CC(C)(C)N(C)C)CC3)C(=O)N3CCCC(N3)C(=O)OCC(C)(C)C2)C1 No

// outcome(item) with item = C[C@@H](NC(=O)c1ncnc(N)c1Cl)c1ncc(C(=O)Nc2cc(C(F)(F)F)c(Cl)cn2)s1 + CCn1c(-c2cc(N3CCN(C)CC3)cnc2C(C)OC)c2c3cc(ccc31)-c1csc(n1)CC(NC(=O)C1CC1C)C(=O)N1CCCC(N1)C(=O)OCC(C)(C)C2 No

// outcome(item) with item = Cc1nc(N2CCC3(CC2)COC(C)C3N)c(CO)nc1Sc1ccnc(N)c1Cl (stereo unspecified) + CCn1c(-c2cc(N3CCN(C)CC3)cnc2C(C)OC)c2c3cc(ccc31)-c1csc(n1)CC(NC(=O)C1CC1C)C(=O)N1CCCC(N1)C(=O)OCC(C)(C)C2 No

// outcome(item) with item = CCC(CC)c1cc(NC2CCC(N)C2)n2nccc2n1 (stereo unspecified) + CCn1c(-c2cccnc2C(C)OC)c2c3cc(ccc31)N1CCOC(CC(NC(=O)C(C(C)C)N(C)C(=O)C3(F)CCN(C(=O)C#CC(C)(C)N(C)C)CC3)C(=O)N3CCCC(N3)C(=O)OCC(C)(C)C2)C1 No

// outcome(item) with item = CC(C)NCC(C(=O)N1CCN(c2ncnc3c2C(C)CC3O)CC1)c1ccc(Cl)cc1 (stereo unspecified) + CCn1c(-c2cc(N3CCN(C)CC3)cnc2C(C)OC)c2c3cc(ccc31)-c1csc(n1)CC(NC(=O)C1CC1C)C(=O)N1CCCC(N1)C(=O)OCC(C)(C)C2 No

// outcome(item) with item = CCC(CC)c1cc(NC2CCC(N)C2)n2nccc2n1 (stereo unspecified) + CCn1c(-c2cc(N3CCN(C)CC3)cnc2C(C)OC)c2c3cc(ccc31)-c1csc(n1)CC(NC(=O)C1CC1C)C(=O)N1CCCC(N1)C(=O)OCC(C)(C)C2 No

// outcome(item) with item = Cc1nc(N2CCC3(CC2)COC(C)C3N)c(CO)nc1Sc1ccnc(N)c1Cl (stereo unspecified) + CCn1c(-c2cccnc2C(C)OC)c2c3cc(ccc31)N1CCOC(CC(NC(=O)C(C(C)C)N(C)C(=O)C3(F)CCN(C(=O)C#CC(C)(C)N(C)C)CC3)C(=O)N3CCCC(N3)C(=O)OCC(C)(C)C2)C1 No

// outcome(item) with item = NC1c2ccccc2OC12CCN(c1cnc3c(N4CCCc5ncccc54)n[nH]c3n1)CC2 (stereo unspecified) + CCn1c(-c2cccnc2C(C)OC)c2c3cc(ccc31)N1CCOC(CC(NC(=O)C(C(C)C)N(C)C(=O)C3(F)CCN(C(=O)C#CC(C)(C)N(C)C)CC3)C(=O)N3CCCC(N3)C(=O)OCC(C)(C)C2)C1 No

// outcome(item) with item = CC1(O)CCCC1n1c(=O)c(C(F)F)cc2cnc(NC3CCN(S(C)(=O)=O)CC3)nc21 (stereo unspecified) + CCn1c(-c2cccnc2C(C)OC)c2c3cc(ccc31)N1CCOC(CC(NC(=O)C(C(C)C)N(C)C(=O)C3(F)CCN(C(=O)C#CC(C)(C)N(C)C)CC3)C(=O)N3CCCC(N3)C(=O)OCC(C)(C)C2)C1 No

// outcome(item) with item = CC(C)NCC(C(=O)N1CCN(c2ncnc3c2C(C)CC3O)CC1)c1ccc(Cl)cc1 (stereo unspecified) + CCn1c(-c2cccnc2C(C)OC)c2c3cc(ccc31)N1CCOC(CC(NC(=O)C(C(C)C)N(C)C(=O)C3(F)CCN(C(=O)C#CC(C)(C)N(C)C)CC3)C(=O)N3CCCC(N3)C(=O)OCC(C)(C)C2)C1 No

// outcome(item) with item = CC(=O)OC12COC1CC(O)C1(C)C(=O)C(O)C3=C(C)C(OC(=O)C(O)C(NC(=O)OC(C)(C)C)c4ccccc4)CC(O)(C(OC(=O)c4ccccc4)C21)C3(C)C (stereo unspecified) + CCn1c(-c2cc(N3CCN(C)CC3)cnc2C(C)OC)c2c3cc(ccc31)-c1csc(n1)CC(NC(=O)C1CC1C)C(=O)N1CCCC(N1)C(=O)OCC(C)(C)C2 No

// outcome(item) with item = CC(Nc1ccc2c(c1)OCCn1cc(N3C(=O)OCC3C(F)F)nc1-2)C(N)=O (stereo unspecified) + CCn1c(-c2cccnc2C(C)OC)c2c3cc(ccc31)N1CCOC(CC(NC(=O)C(C(C)C)N(C)C(=O)C3(F)CCN(C(=O)C#CC(C)(C)N(C)C)CC3)C(=O)N3CCCC(N3)C(=O)OCC(C)(C)C2)C1 Yes

// outcome(item) with item = CC(Nc1ccc2c(c1)OCCn1cc(N3C(=O)OCC3C(F)F)nc1-2)C(N)=O (stereo unspecified) + CCn1c(-c2cc(N3CCN(C)CC3)cnc2C(C)OC)c2c3cc(ccc31)-c1csc(n1)CC(NC(=O)C1CC1C)C(=O)N1CCCC(N1)C(=O)OCC(C)(C)C2 Yes

// outcome(item) with item = NC1c2ccccc2OC12CCN(c1cnc3c(N4CCCc5ncccc54)n[nH]c3n1)CC2 (stereo unspecified) + CCn1c(-c2cc(N3CCN(C)CC3)cnc2C(C)OC)c2c3cc(ccc31)-c1csc(n1)CC(NC(=O)C1CC1C)C(=O)N1CCCC(N1)C(=O)OCC(C)(C)C2 No

// outcome(item) with item = C[C@@H](NC(=O)c1ncnc(N)c1Cl)c1ncc(C(=O)Nc2cc(C(F)(F)F)c(Cl)cn2)s1 + CCn1c(-c2cccnc2C(C)OC)c2c3cc(ccc31)N1CCOC(CC(NC(=O)C(C(C)C)N(C)C(=O)C3(F)CCN(C(=O)C#CC(C)(C)N(C)C)CC3)C(=O)N3CCCC(N3)C(=O)OCC(C)(C)C2)C1 No

Source of measurements: PubChem BioAssay AID2060901
